Data origin: patent US9273058B2

# SYSTEM_NAME: CK1δ (Homo sapiens)
# Sequence (P48730 whole entry): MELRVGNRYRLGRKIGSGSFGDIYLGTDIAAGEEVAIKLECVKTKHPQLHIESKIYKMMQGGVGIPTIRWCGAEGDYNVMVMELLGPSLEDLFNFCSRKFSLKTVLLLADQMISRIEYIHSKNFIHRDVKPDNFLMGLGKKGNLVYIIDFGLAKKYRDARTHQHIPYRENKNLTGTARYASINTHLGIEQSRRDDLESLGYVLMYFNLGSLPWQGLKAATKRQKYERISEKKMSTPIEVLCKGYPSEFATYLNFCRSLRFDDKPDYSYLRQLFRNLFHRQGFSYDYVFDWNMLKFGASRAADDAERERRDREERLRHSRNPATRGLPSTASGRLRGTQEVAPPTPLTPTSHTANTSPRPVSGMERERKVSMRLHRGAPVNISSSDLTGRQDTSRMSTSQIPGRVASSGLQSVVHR
# MEASUREMENT_PROTOCOL: CK1δ kinase assay (Caliper LabChip electrophoretic separation of fluoresceinated peptide substrate and product)
# Assay type: biochemical
# STUDY_CONDITIONS: 200 pM CK1δ, 50 μM ATP, 1.5 μM peptide, 22 hours at room temperature; read-out: CK1δ IC50 range
pIC50: −log10 of the molar value.
OBSERVED_PROPERTY: pIC50

| COMPOUND | pIC50 |
| --- | --- |
| CC(C)(C)NC(=O)N1Cc2c(C(N)=O)c(-c3ccc(F)c(Cl)c3)nn2C2(CC2)C1 | 8.00 to 11.00 |
| NC(=O)c1c(-c2ccc(F)c(Cl)c2)nn2c1CN(C(=O)NC1CCCC1)CC2C(F)F (stereo not drawn) [Compound A11] | 8.00 to 11.00 |
| CC(C)(NC(=O)N1CCn2nc(-c3cccc(Cl)c3)c(C(N)=O)c2C1)c1ccc(C#N)cc1 | 8.00 to 11.00 |
| CC(C)(NC(=O)N1CCn2nc(-c3ccc(F)c(Cl)c3)c(C(N)=O)c2C1)C1CCC(F)(F)CC1 | 8.00 to 11.00 |
| NC(=O)c1c(-c2cccc(F)c2)nn2c1CN(C(=O)NC1(C(F)(F)F)CC1)CC2 | 7.00 to 8.00 |
| CC(C)NC(=O)N1CCn2nc(-c3ccc(F)cc3)c(C(N)=O)c2C1 | 7.00 to 8.00 |

Below are some compounds; for each one, tell me its pIC50.
1. CC1(NC(=O)N2CCn3nc(-c4ccc(F)c(Cl)c4)c(C(N)=O)c3C2)CC(F)(F)C1
2. N#Cc1ccc([C@H]2C[C@@H](NC(=O)N3CCn4nc(-c5ccc(F)c(Cl)c5)c(C(N)=O)c4C3)C2)cc1
3. CC1(NC(=O)N2CCn3nc(-c4ccc(F)c(Cl)c4)c(C(N)=O)c3C2)CC2(C1)CC2(F)F (single isomer, unassigned) [Compound 326]
4. NC(=O)c1c(-c2cc(Cl)cc(Cl)c2)nn2c1CN(C(=O)NC1CC(F)(F)C1)CC2
5. C[C@@]12C[C@H]3C[C@@](Cl)(C1)C[C@](NC(=O)N1CCn4nc(-c5ccc(Cl)c(Cl)c5)c(C(N)=O)c4C1)(C3)C2

8.00 to 11.00
8.00 to 11.00
8.00 to 11.00
8.00 to 11.00
8.00 to 11.00

Below are some compounds; for each one, tell me its pIC50.
1. CC(C)(C)NC(=O)N1CCn2nc(-c3cncc4ccccc34)c(C(N)=O)c2C1
2. CC(C)(C)NC(=O)N1Cc2c(C(N)=O)c(-c3ccc(Cl)c(Cl)c3)nn2C(C(C)(C)O)C1 (stereo not drawn) [Compound A38]
3. CO[C@H]1C[C@H](NC(=O)N2CCn3nc(-c4cccc(Cl)c4)c(C(N)=O)c3C2)C1

["5.70 to 7.00", "8.00 to 11.00", "8.00 to 11.00"]

Per the records, this compound ( NC(=O)c1c(-c2cccc(Cl)c2)nn2c1CN(C(=O)N[C@H]1C[C@@H]3[C@H](C1)C3(F)F)CC2 ) has pIC50 equal to 8.00 to 11.00

----------
# SYSTEM_NAME: CK1δ (Homo sapiens)
# MEASUREMENT_PROTOCOL: CK1δ kinase assay (Caliper LabChip electrophoretic separation of fluoresceinated peptide substrate and product)
# Format: biochemical
# STUDY_CONDITIONS: 200 pM CK1δ, 50 μM ATP, 1.5 μM peptide, 22 hours at room temperature; read-out: CK1δ IC50 range
OBSERVED_PROPERTY: IC50

The following compounds have reported results that may help.
| COMPOUND | SYSTEM_NAME | IC50 |
| --- | --- | --- |
| CC(C)(NC(=O)N1CCn2nc(-c3ccc(F)c(Cl)c3)c(C(N)=O)c2C1)C(=O)NC1CC1 [Compound 213] | CK1δ (Homo sapiens) | 10 to 100 nM |
| NC(=O)c1c(-c2ccc(Cl)c(Cl)c2)nn2c1CN(C(=O)NC1(CF)CC(F)(F)C1)CC2 [compound 303] | CK1δ (Homo sapiens) | 0.01 to 10 nM |
| Cn1cc(-c2nn3c(c2C(N)=O)CN(C(=O)NC(C)(C)C)CC3)cn1 [Compound 153] | CK1δ (Homo sapiens) | 100 to 2000 nM |
| CC(C)(C)NC(=O)N1Cc2c(C(N)=O)c(-c3ccc(Cl)c(Cl)c3)nn2C(C(C)(C)O)C1 (centres unmarked) [Compound A37] | CK1δ (Homo sapiens) | 10 to 100 nM |
| NC(=O)c1c(-c2ccc(F)c(Cl)c2)nn2c1CN(C(=O)N[C@H]1C[C@@H](F)C1)CC2 [Compound 190] | CK1δ (Homo sapiens) | 0.01 to 10 nM |
| CC(C)(C)NC(=O)N1CCn2nc(-c3cccc(C(F)(F)F)c3)c(C(N)=O)c2C1 [Compound 110] | CK1δ (Homo sapiens) | 10 to 100 nM |

Below are some compounds; for each one, tell me its IC50.
1. CC(C)(CC#N)NC(=O)N1CCn2nc(-c3ccc(F)c(Cl)c3)c(C(N)=O)c2C1 [Compound 186]
2. CC(C)C1CN(C(=O)NC(C)(C)C)Cc2c(C(N)=O)c(-c3ccc(F)c(Cl)c3)nn21 (single isomer, unassigned) [Compound A119]

0.01 to 10 nM
10 to 100 nM

----------
Please go through the items and note down their IC50.
# SYSTEM_NAME: CK1δ (Homo sapiens)
# MEASUREMENT_PROTOCOL: CK1δ kinase assay (Caliper LabChip electrophoretic separation of fluoresceinated peptide substrate and product)
# Format: biochemical
# STUDY_CONDITIONS: 200 pM CK1δ, 50 μM ATP, 1.5 μM peptide, 22 hours at room temperature; read-out: CK1δ IC50 range

| COMPOUND | IC50 |
| --- | --- |
| Cn1nccc1NC(=O)N1CCn2nc(-c3cccc(F)c3)c(C(N)=O)c2C1 [Compound 96] | 10 to 100 nM |

Below are some compounds; for each one, tell me its IC50.
1. CC(C)(C)NC(=O)N1CCn2nc(-c3cccnc3)c(C(N)=O)c2C1 [Compound 111]
2. CC(C)(C)NC(=O)N1CCn2nc(-c3ccc(F)c(Cl)c3)c(C(N)=O)c2C1 [Compound 104]
3. CC(C)(NC(=O)N1CCn2nc(-c3ccc(F)c(Cl)c3)c(C(N)=O)c2C1)c1ccc(C#N)cc1 [Compound 187]
4. N#Cc1ccc(C2(NC(=O)N3CCn4nc(-c5cccc(Cl)c5)c(C(N)=O)c4C3)CC(F)(F)C2)cc1 [Compound 315]
5. CC(C)(C)NC(=O)N1CCn2nc(-c3cccc(C(N)=O)c3)c(C(N)=O)c2C1 [Compound 123]
6. N#CC1(NC(=O)N2CCn3nc(-c4ccc(F)c(Cl)c4)c(C(N)=O)c3C2)CCOC1 (stereo not drawn) [Compound 334]

["100 to 2000 nM", "0.01 to 10 nM", "0.01 to 10 nM", "0.01 to 10 nM", "10 to 100 nM", "0.01 to 10 nM"]

Below are some compounds; for each one, tell me its IC50.
1. CC1(NC(=O)N2CCn3nc(-c4ccc(Cl)c(Cl)c4)c(C(N)=O)c3C2)CC2(CC2)C1 [Compound 319]
2. N#CCC1(NC(=O)N2CCn3nc(-c4cccc(Cl)c4)c(C(N)=O)c3C2)CCC1 [Compound 221]

0.01 to 10 nM
0.01 to 10 nM

Below are some compounds; for each one, tell me its IC50.
1. CC(C)(C)NC(=O)N1Cc2c(C(N)=O)c(-c3ccc(F)c(Cl)c3)nn2C(CCO)C1 (single isomer, unassigned) [Compound A97]
2. CS(=O)(=O)[C@H]1C[C@@H](NC(=O)N2CCn3nc(-c4ccc(F)c(Cl)c4)c(C(N)=O)c3C2)C1 [Compound 272]
3. CC(C)(NC(=O)N1CCn2nc(-c3ccc(F)c(Cl)c3)c(C(N)=O)c2C1)C(N)=O [Compound 219]
4. NC(=O)c1c(-c2ccc(F)c(Cl)c2)nn2c1CN(C(=O)NC1CC3(C1)CC3(F)F)CC2 (single isomer, unassigned) [Compound 321]
5. CCC1(NC(=O)N2CCn3nc(-c4ccc(Cl)c(Cl)c4)c(C(N)=O)c3C2)CC(F)(F)C1 [Compound 301]
6. CC1(NC(=O)N2Cc3c(C(N)=O)c(-c4ccc(F)c(Cl)c4)nn3C(CF)C2)CC(F)(F)C1 (stereo not drawn) [Compound A10]

1: 0.01 to 10 nM; 2: 0.01 to 10 nM; 3: 10 to 100 nM; 4: 0.01 to 10 nM; 5: 0.01 to 10 nM; 6: 0.01 to 10 nM

----------
# SYSTEM_NAME: CK1ε (Homo sapiens)
# Sequence (P49674 whole entry): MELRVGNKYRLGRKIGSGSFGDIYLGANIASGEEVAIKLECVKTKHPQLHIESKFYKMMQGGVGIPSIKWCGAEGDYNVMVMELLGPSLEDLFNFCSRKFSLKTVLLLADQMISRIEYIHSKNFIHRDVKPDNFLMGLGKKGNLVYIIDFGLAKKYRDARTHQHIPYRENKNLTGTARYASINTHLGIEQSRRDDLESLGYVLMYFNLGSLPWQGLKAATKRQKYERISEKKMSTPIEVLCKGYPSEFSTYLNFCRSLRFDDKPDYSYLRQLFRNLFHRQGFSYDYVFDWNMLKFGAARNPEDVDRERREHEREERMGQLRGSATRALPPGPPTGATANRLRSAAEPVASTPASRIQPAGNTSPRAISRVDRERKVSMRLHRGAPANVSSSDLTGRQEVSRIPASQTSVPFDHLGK
# MEASUREMENT_PROTOCOL: CK1ε kinase assay (Caliper LabChip electrophoretic separation of fluoresceinated peptide substrate and product)
# Assay type: biochemical
# STUDY_CONDITIONS: 200 pM CK1ε, 50 μM ATP, 1.5 μM peptide, 22 hours at room temperature; read-out: CK1ε IC50 range
# Experimental: CK1ε and CK1δ Kinase Assays The kinase assay was performed in V-bottom 384-well plates. […] The reaction was incubated at room temperature for 22 hours and terminated by adding 45 μl of 35 mM EDTA to each sample. The reaction mixture was analyzed on the Caliper LABCHIP®3000 (Caliper, Hopkinton, Mass.) by electrophoretic separation of the unphosphorylated substrate and phosphorylated product. […] Compounds were dissolved at 10 mM in dimethylsulfoxide (DMSO) and evaluated at eleven concentrations. […]
Please go through the items and note down their IC50.

The following molecules have reported results that may help.
| MOLECULE | IC50 |
| --- | --- |
| CC(C)(C)NC(=O)N1Cc2c(C(N)=O)c(-c3cccc(Cl)c3)nn2C2(CC2)C1 [Compound A129] | 0.01 to 10 nM |
| CC(C)(C)NC(=O)N1CCn2nc(-c3ccc4cc[nH]c4c3)c(C(N)=O)c2C1 [Compound 143] | 10 to 100 nM |
| CC(C)(NC(=O)N1CCn2nc(-c3cccc(F)c3)c(C(N)=O)c2C1)c1ccc(F)cc1 [Compound 17] | 10 to 100 nM |

# evaluate next
Per the records, this molecule ( NC(=O)c1c(-c2cccc(Cl)c2)nn2c1CN(C(=O)NCC1CC(F)(F)C1)CC2 [Compound 179] ) has IC50 equal to 0.01 to 10 nM
